Values compiled from patent US20240132624A1.

test target: T1, mouse serum albumin (mouse, UniProt P07724 25-608)
T1 construct: also called MSA
T1 sequence (P07724 25-608 limits assumed): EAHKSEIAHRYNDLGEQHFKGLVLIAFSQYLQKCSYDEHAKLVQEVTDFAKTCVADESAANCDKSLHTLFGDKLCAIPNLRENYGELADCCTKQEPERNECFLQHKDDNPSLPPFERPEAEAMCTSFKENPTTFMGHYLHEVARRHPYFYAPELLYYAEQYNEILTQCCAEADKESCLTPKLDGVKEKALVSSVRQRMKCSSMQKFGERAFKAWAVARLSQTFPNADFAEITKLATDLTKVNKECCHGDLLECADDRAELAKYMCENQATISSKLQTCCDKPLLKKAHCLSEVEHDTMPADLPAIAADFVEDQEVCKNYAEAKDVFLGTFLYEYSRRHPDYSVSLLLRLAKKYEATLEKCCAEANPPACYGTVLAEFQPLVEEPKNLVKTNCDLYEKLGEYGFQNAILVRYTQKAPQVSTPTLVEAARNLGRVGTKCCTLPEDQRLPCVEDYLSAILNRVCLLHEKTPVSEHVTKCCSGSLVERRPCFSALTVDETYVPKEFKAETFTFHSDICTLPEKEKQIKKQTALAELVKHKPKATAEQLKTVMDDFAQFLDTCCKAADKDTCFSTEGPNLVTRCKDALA
assay remarks: SPR pH 6.0
quantity kind: Kd (nM)
Give the value in nM but do not write nM after it.

Exam item: Find the recorded Kd belonging to T026301170 (bispecific antibody, bispecific ISVD construct; also called T0263018B11(E1D)-35GS-ALB23002-A) DVQLVESGGGVVQPGGSLRLSCAASGFTFSSYAMYWVRQAPGKGLEWVSAISSGGGSTDYADSVKGRFTISRDNSKNTLYLQMNSLRPEDTALYYCAADTLYTSLTWYSYWGQGTLVTVSSGGGGSGGGGSGGGGSGGGGSGGGGSGGGGSGGGGSEVQLVESGGGVVQPGGSLRLSCAASGFTFRSFGMSWVRQAPGKGPEWVSSISGSGSDTLYADSVKGRFTISRDNSKNTLYLQMNSLRPEDTALYYCTIGGSLSRSSQGTLVTVSSA and report it.
Marked response: 67

Exam item: Consider the binder shown here: T026301198 (bispecific antibody, name in Kabat numbering, bispecific ISVD construct; also called T0263018B11(E1D, W100cS)-35GS-ALB23002-A) DVQLVESGGGVVQPGGSLRLSCAASGFTFSSYAMYWVRQAPGKGLEWVSAISSGGGSTDYADSVKGRFTISRDNSKNTLYLQMNSLRPEDTALYYCAADTLYTSLTSYSYWGQGTLVTVSSGGGGSGGGGSGGGGSGGGGSGGGGSGGGGSGGGGSEVQLVESGGGVVQPGGSLRLSCAASGFTFRSFGMSWVRQAPGKGPEWVSSISGSGSDTLYADSVKGRFTISRDNSKNTLYLQMNSLRPEDTALYYCTIGGSLSRSSQGTLVTVSSA What is its recorded Kd?
Marked response: 89

Exam item: Find the recorded Kd belonging to T026301197 (bispecific antibody, name in Kabat numbering, bispecific ISVD construct; also called T0263018B11(E1D, S52aQ)-35GS-ALB23002-A) DVQLVESGGGVVQPGGSLRLSCAASGFTFSSYAMYWVRQAPGKGLEWVSAISQGGGSTDYADSVKGRFTISRDNSKNTLYLQMNSLRPEDTALYYCAADTLYTSLTWYSYWGQGTLVTVSSGGGGSGGGGSGGGGSGGGGSGGGGSGGGGSGGGGSEVQLVESGGGVVQPGGSLRLSCAASGFTFRSFGMSWVRQAPGKGPEWVSSISGSGSDTLYADSVKGRFTISRDNSKNTLYLQMNSLRPEDTALYYCTIGGSLSRSSQGTLVTVSSA and report it.
Marked response: 57

Exam item: Which value of Kd has been reported for T026301195 (bispecific antibody, name in Kabat numbering, bispecific ISVD construct; also called T0263018B11(E1D, S31E, A33D, W100cS)-35GS-ALB23002-A) DVQLVESGGGVVQPGGSLRLSCAASGFTFSEYDMYWVRQAPGKGLEWVSAISSGGGSTDYADSVKGRFTISRDNSKNTLYLQMNSLRPEDTALYYCAADTLYTSLTSYSYWGQGTLVTVSSGGGGSGGGGSGGGGSGGGGSGGGGSGGGGSGGGGSEVQLVESGGGVVQPGGSLRLSCAASGFTFRSFGMSWVRQAPGKGPEWVSSISGSGSDTLYADSVKGRFTISRDNSKNTLYLQMNSLRPEDTALYYCTIGGSLSRSSQGTLVTVSSA in the records?
Marked response: 77

Exam item: // lookup Kd for T026301196 (bispecific antibody, name in Kabat numbering, bispecific ISVD construct; also called T0263018B11(E1D, G26T, S52aQ, W100cS)-35GS-ALB23002-A) DVQLVESGGGVVQPGGSLRLSCAASTFTFSSYAMYWVRQAPGKGLEWVSAISQGGGSTDYADSVKGRFTISRDNSKNTLYLQMNSLRPEDTALYYCAADTLYTSLTSYSYWGQGTLVTVSSGGGGSGGGGSGGGGSGGGGSGGGGSGGGGSGGGGSEVQLVESGGGVVQPGGSLRLSCAASGFTFRSFGMSWVRQAPGKGPEWVSSISGSGSDTLYADSVKGRFTISRDNSKNTLYLQMNSLRPEDTALYYCTIGGSLSRSSQGTLVTVSSA
Marked response: 89

Exam item: Bench note: what Kd did T026301192 (bispecific antibody, name in Kabat numbering, bispecific ISVD construct; also called T0263018B11(E1D, S100E)-35GS-ALB23002-A) DVQLVESGGGVVQPGGSLRLSCAASGFTFSSYAMYWVRQAPGKGLEWVSAISSGGGSTDYADSVKGRFTISRDNSKNTLYLQMNSLRPEDTALYYCAADTLYTELTWYSYWGQGTLVTVSSGGGGSGGGGSGGGGSGGGGSGGGGSGGGGSGGGGSEVQLVESGGGVVQPGGSLRLSCAASGFTFRSFGMSWVRQAPGKGPEWVSSISGSGSDTLYADSVKGRFTISRDNSKNTLYLQMNSLRPEDTALYYCTIGGSLSRSSQGTLVTVSSA show?
Marked response: 64
